System: MX-1 breast xenograft, nude mice, tumor weight T/C
Experiment: NCI In Vivo Anticancer Drug Screen. Data for tumor model Human Mammary Carcinoma MX-1 Xenograft (intrarenal inoculation) in NU/NU Swiss (nude) mice
Details: endpoint: mean tumor weight change; dose: 12.0 mg/kg/injection; schedule: Q04DX003 (sc); vehicle: Klucel (hydroxypropylcellulose) (HPC); higher = larger tumour
Records with an inconclusive call do not appear.
Each entry below lists one item and its recorded T/C value.
measuredMetric: T/C

INSERT INTO assay_data (molecule, value) VALUES
  ('CC1OC1C(=O)C1(O)C(C)C(O)C23OC2(C(O)c2c(O)cccc2C3=O)C1O (centres undefined)', '102 % of control'),
  ('CCC[CH2][Sn]1([CH2]CCC)[O]C2C(CO)OC(n3ccc(N)nc3=O)C2[O]1 (centres undefined)', '55 % of control'),
  ('CC1CC(C)CC(C)C(O)/C(C#N)=C/C=C/CC(C2CCCC2C(=O)O)OC(=O)CC(O)C(C)C1 (centres undefined)', '79 % of control'),
  ('CCCCCCCCNc1cc2c3c(c1)CCCN3CCC2', '108 % of control');

* * *

Test system: MX-1 breast xenograft, nude mice, tumor weight T/C
Test: NCI In Vivo Anticancer Drug Screen. Data for tumor model Human Mammary Carcinoma MX-1 Xenograft (intrarenal inoculation) in NU/NU Swiss (nude) mice
Conditions: endpoint: mean tumor weight change; dose: 0.5 mg/kg/injection; schedule: Q04DX003 (sc); vehicle: saline + alcohol; higher = larger tumour
Results filed as inconclusive are left out. *1 amine or outer side, *2 acyl side, *3 side chain or, on linkers, in order; H or OH if unused. Where a SMILES comes first, the peptide text is derived from it. Bridges are numbered along the chain shown (N, C = ends). Roman numbers before positions name the chains, in order. [ ]: non-standard residue; d: D form. Actinocin(1to9) = Cc1c2oc3c(C)ccc(C(=O)[*:2])c3nc-2c(C(=O)[*:1])c(N)c1=O; NMeV = CN[CH](C(=O)O)C(C)C; Aze = O=C(O)[CH]1CCN1; Sar = CNCC(=O)O
Each entry below lists one item and its recorded T/C value.
measuredMetric: T/C

INSERT INTO results (compound, value) VALUES
  ('COC(=O)[C@@]12OC[C@]34[C@H]([C@@H](O)[C@@H]1O)[C@@]1(C)CC(=O)C(O)=C(C)[C@@H]1C[C@H]3OC(=O)[C@H](OC(=O)/C=C(\C)C(C)C)[C@@H]24', '158 % of control'),
  ('CCC(=O)N(C)[C@@H](C)C(=O)O[C@H]1CC(=O)N(C)c2cc(cc(OC)c2Cl)C/C(C)=C/C=C[C@@H](OC)[C@@]2(O)C[C@H](OC(=O)N2)[C@@H](C)[C@@H]2O[C@@]12C', '7 % of control'),
  ('CCC/C=C/C=C/C(=O)OC1/C(=C/C(=O)OC)CC2CC(C(C)O)OC(=O)CC(O)CC3CC(OC(C)=O)C(C)(C)C(O)(CC4C/C(=C/C(=O)OC)CC(/C=C/C(C)(C)C1(O)O2)O4)O3 (centres undefined)', '111 % of control'),
  ('Cc1c2oc3c(C)ccc(C(=O)NC4C(=O)NC(C(C)C)C(=O)N5CCCC5C(=O)N(C)CC(=O)N(C)C(C(C)C)C(=O)OC4C)c3nc-2c(C(=O)NC2C(=O)NC(C(C)C)C(=O)N3CCC3C(=O)N(C)CC(=O)N(C)C(C(C)C)C(=O)OC2C)c(N)c1=O (centres undefined) (I: TV[Aze][Sar][NMeV] / II: TVP[Sar][NMeV]; ester I:1-I:C, II:1-II:C; linker I:N-II:N via Actinocin(1to9); configuration not given here)', '12 % of control');

* * *

Each entry below lists one item and its recorded T/C value.
Test system: MX-1 breast xenograft, nude mice, tumor weight T/C
Assay: NCI In Vivo Anticancer Drug Screen. Data for tumor model Human Mammary Carcinoma MX-1 Xenograft (intrarenal inoculation) in NU/NU Swiss (nude) mice
Details: endpoint: mean tumor weight change; dose: 200.0 mg/kg/injection; schedule: Q04DX003 (sc); vehicle: Klucel (hydroxypropylcellulose) (HPC); higher = larger tumour
Inconclusive results are not listed.
measuredMetric: T/C

INSERT INTO assay_data (compound, targetentity, measuredmetric, value) VALUES
  ('C[C@H]1C[C@@H]2[C@H]([C@@H](O)C[C@@]3(C)[C@H]2CC[C@]3(O)C(=O)CO)[C@@]2(C)C=CC(=O)C=C12', 'MX-1 breast xenograft, nude mice, tumor weight T/C', 'T/C', '33 % of control'),
  ('CCCCCCCCCCCCCCC/C([O-])=N/[N+](C)(C)CC(C)O (stereo unspecified)', 'MX-1 breast xenograft, nude mice, tumor weight T/C', 'T/C', '95 % of control'),
  ('COc1ccc2[nH]c3ccc4cc[n+](CCN5CCC(C6CCN(CC[n+]7ccc8ccc9[nH]c%10ccc(OC)cc%10c9c8c7)CC6)CC5)cc4c3c2c1', 'MX-1 breast xenograft, nude mice, tumor weight T/C', 'T/C', '108 % of control'),
  ('O=C(O)C1(NO)CCCCC1', 'MX-1 breast xenograft, nude mice, tumor weight T/C', 'T/C', '110 % of control'),
  ('Nc1nc(N)c2cc(CNc3ccc(C(=O)NC(CC(=O)O)CC(=O)O)cc3)ccc2n1', 'MX-1 breast xenograft, nude mice, tumor weight T/C', 'T/C', '85 % of control'),
  ('O=C(C#Cc1ccccc1)c1ccccc1', 'MX-1 breast xenograft, nude mice, tumor weight T/C', 'T/C', '87 % of control'),
  ('CSc1cc(C)[o+]c(C)c1', 'MX-1 breast xenograft, nude mice, tumor weight T/C', 'T/C', '36 % of control'),
  ('COc1ccc2c(c1)CCC(c1ccccc1)=C2c1ccc(OCCN2CCCC2)cc1', 'MX-1 breast xenograft, nude mice, tumor weight T/C', 'T/C', '67 % of control'),
  ('CCNC(=O)[B-][N+](C)(C)C', 'MX-1 breast xenograft, nude mice, tumor weight T/C', 'T/C', '92 % of control'),
  ('O=c1[nH]c(=O)c2nc(-c3cccnc3)cnc2[nH]1', 'MX-1 breast xenograft, nude mice, tumor weight T/C', 'T/C', '36 % of control'),
  ('CCc1ccccc1N1CCN(C(=O)c2cc(OC)c(OC)c(OC)c2)CC1', 'MX-1 breast xenograft, nude mice, tumor weight T/C', 'T/C', '86 % of control');

* * *

Test system: MX-1 breast xenograft, nude mice, tumor weight T/C
Assay: NCI In Vivo Anticancer Drug Screen. Data for tumor model Human Mammary Carcinoma MX-1 Xenograft (intrarenal inoculation) in NU/NU Swiss (nude) mice
Details: endpoint: mean tumor weight change; dose: 75.0 mg/kg/injection; schedule: Q04DX003 (sc); vehicle: Klucel (hydroxypropylcellulose) (HPC); higher = larger tumour
Inconclusive results are not listed. Where a SMILES comes first, the peptide text is derived from it. The star is where a group is joined. Trt = c1ccc(C(c2ccccc2)(c2ccccc2)*)cc1; Cbz = O=C(OCc1ccccc1)*; Bn = c1ccc(C*)cc1; βAla = NCCC(=O)O
measuredMetric: T/C

INSERT INTO assay_data (compound, measuredmetric, value) VALUES
  ('O=C1C2(Cl)C3(Cl)C4(Cl)C(Cl)(Cl)C5(Cl)[C@]3(Cl)C1(Cl)[C@]5(Cl)C24Cl (stereo partly specified)', 'T/C', '121 % of control'),
  ('COc1ccc2[nH]c3c(c2c1)CCNC3CC(C)CCC=C(C)C (stereo unspecified)', 'T/C', '114 % of control'),
  ('COC(=O)C(CSC(c1ccccc1)(c1ccccc1)c1ccccc1)NC(=O)C(CSCc1ccccc1)NC(=O)CCNC(=O)OCc1ccccc1 (stereo unspecified) ({Cbz-βAla}-Cys(Bn)-Cys(Trt)-OMe; configuration not given here)', 'T/C', '99 % of control'),
  ('CCCCCC[Se][Se]CCCCCC', 'T/C', '98 % of control'),
  ('O=C(O)CSc1c(Cl)c(=O)oc2ccc(Cl)cc12', 'T/C', '87 % of control'),
  ('O=C1C=CC(n2cc(F)c(=O)[nH]c2=O)O1 (stereo unspecified)', 'T/C', '104 % of control'),
  ('COc1nc(=O)n(C2C=CC(=O)O2)cc1F (stereo unspecified)', 'T/C', '116 % of control'),
  ('O=c1nc(-c2ccco2)sc(=O)[nH]1', 'T/C', '122 % of control'),
  ('CN(C)c1ccc2c(N(C)C)cc(N(C)C)nc2c1', 'T/C', '82 % of control'),
  ('CN(C)c1ccc2c(SCC(=O)OCC(=O)[C@@]3(O)CC[C@H]4[C@@H]5CCC6=CC(=O)C=C[C@]6(C)[C@H]5C(=O)C[C@@]43C)c3ccc(N(C)C)cc3nc2c1', 'T/C', '53 % of control'),
  ('C1CCC2OCCOCCOC3CCCCC3OCCOCCOC2C1 (stereo unspecified)', 'T/C', '46 % of control'),
  ('COc1cc2cc[n+](C)c(Cc3ccccc3)c2cc1OC', 'T/C', '58 % of control'),
  ('Nc1ncnc2c(C3OC(CO)C(O)C3O)[nH]nc12 (stereo unspecified)', 'T/C', '-100 % of control'),
  ('O=S1(=O)CS(=O)(=O)OCCO1', 'T/C', '42 % of control'),
  ('C=C(Cl)C(=NC(C)(C)C)Nc1ccccc1C', 'T/C', '96 % of control'),
  ('COC1CC2C=C(C)/C=C/C=C/C(=O)NC(c3ccccc3)C/C=C/CCC(O)CC(=O)C2=C1O (stereo unspecified)', 'T/C', '41 % of control'),
  ('O=C(O)c1cc(Cc2ccc(O)c(C(=O)O)c2)ccc1O (tested in a mixture with another compound)', 'T/C', '63 % of control'),
  ('C[C@]12CCC(=O)C=C1CC[C@@H]1[C@@H]2[C@@H](O)C[C@@]2(C)[C@H]1CC[C@]2(O)C(=O)CO', 'T/C', '117 % of control'),
  ('O=S(=O)(O)O', 'T/C', '86 % of control'),
  ('O=C1C=CC(=O)N1c1ccc(Cl)cc1', 'T/C', '91 % of control'),
  ('CCN(CC)c1ccc2cc(-c3nc4ccccc4n3C)c(=O)oc2c1', 'T/C', '119 % of control');
